Sourced from patent US20250263376A1

tested on: S. typhimurium TA1537; assay: Ames microplate test, TA1537; assay type: cell-based, Salmonella typhimurium; settings: 1.0 mM, without S9
PROPERTY: Increase in the number of yellow wells compared to the reference level, TA1537
The answer should be written as a number, with no unit following it.

Observe how each entry below is paired with its result.
COMPOUND	REPORTED VALUE
O=C(/C=C/c1ccccc1)NCCCCCCO	0.18
O=C(/C=C/c1ccc(Cl)cc1)NCCCCCO	0.54
CC(CO)NC(=O)/C=C/c1ccc(Cl)cc1 (stereo not drawn)	0.00
O=C(/C=C/c1ccccc1)NCCCCCO	0.54
CCC(O)CNC(=O)/C=C/c1ccc(Cl)cc1 (stereo not drawn)	0.18

Shift focus to the following entry.
Form field: reported Increase in the number of yellow wells compared to the reference level, TA1537 of `Cc1ccc(/C=C/C(=O)NCCCCCO)cc1` 0.33
